The next entries give measured AC50 for Cytochrome P450 1A2 (Homo sapiens, UniProt P05177).
experimental endpoint: AC50

given smiles	reported result
Cc1ccc(-n2ccc(=O)c(-c3ccnc(SCc4cccc(Cl)c4)n3)n2)cc1	14.1 µM (inconclusive)
O=C(Cc1ccc(-n2c(=O)[nH]c3ccccc3c2=O)cc1)N1CCN(c2cccc(Cl)c2)CC1	17.8 µM (inconclusive)
COC(=O)[C@@]1(Cc2ccc(F)cc2)[C@H]2c3cc(C(=O)N(C)C)n(Cc4cccc5ccccc45)c3C[C@H]2CN1C(=O)c1ccccc1	6.31 µM (inconclusive)
O=c1c(-c2ccccc2)nc2cnc(N3CCNCC3)nc2n1Cc1ccc(F)cc1	20 µM (inconclusive)
Nc1c(S(=O)(=O)c2ccccc2)c2nc3ccccc3nc2n1Cc1ccco1	22.4 µM (inconclusive)
COCCN(C(=O)C(C)C)c1nnc(-c2ccc(C)cc2)s1	12.6 µM (inconclusive)
O=c1c(-c2cc(F)cc(F)c2)nc2cnc(N3CCNCC3)nc2n1CCc1ccccc1	20 µM (inconclusive)
COC(=O)[C@@]1(Cc2ccc(OC)cc2)[C@H]2c3cc(C(=O)N4CCCC4)n(Cc4ccc(Cl)c(C(F)(F)F)c4)c3C[C@H]2CN1C(=O)c1ccccc1	12.6 µM (inconclusive)
NCCCCCc1nnc(SCc2ccccc2Cl)o1	28.2 µM (inconclusive)

* * *

tested system: Short transient receptor potential channel 4 (Mus musculus)
Sequence (Q9QUQ5 whole entry): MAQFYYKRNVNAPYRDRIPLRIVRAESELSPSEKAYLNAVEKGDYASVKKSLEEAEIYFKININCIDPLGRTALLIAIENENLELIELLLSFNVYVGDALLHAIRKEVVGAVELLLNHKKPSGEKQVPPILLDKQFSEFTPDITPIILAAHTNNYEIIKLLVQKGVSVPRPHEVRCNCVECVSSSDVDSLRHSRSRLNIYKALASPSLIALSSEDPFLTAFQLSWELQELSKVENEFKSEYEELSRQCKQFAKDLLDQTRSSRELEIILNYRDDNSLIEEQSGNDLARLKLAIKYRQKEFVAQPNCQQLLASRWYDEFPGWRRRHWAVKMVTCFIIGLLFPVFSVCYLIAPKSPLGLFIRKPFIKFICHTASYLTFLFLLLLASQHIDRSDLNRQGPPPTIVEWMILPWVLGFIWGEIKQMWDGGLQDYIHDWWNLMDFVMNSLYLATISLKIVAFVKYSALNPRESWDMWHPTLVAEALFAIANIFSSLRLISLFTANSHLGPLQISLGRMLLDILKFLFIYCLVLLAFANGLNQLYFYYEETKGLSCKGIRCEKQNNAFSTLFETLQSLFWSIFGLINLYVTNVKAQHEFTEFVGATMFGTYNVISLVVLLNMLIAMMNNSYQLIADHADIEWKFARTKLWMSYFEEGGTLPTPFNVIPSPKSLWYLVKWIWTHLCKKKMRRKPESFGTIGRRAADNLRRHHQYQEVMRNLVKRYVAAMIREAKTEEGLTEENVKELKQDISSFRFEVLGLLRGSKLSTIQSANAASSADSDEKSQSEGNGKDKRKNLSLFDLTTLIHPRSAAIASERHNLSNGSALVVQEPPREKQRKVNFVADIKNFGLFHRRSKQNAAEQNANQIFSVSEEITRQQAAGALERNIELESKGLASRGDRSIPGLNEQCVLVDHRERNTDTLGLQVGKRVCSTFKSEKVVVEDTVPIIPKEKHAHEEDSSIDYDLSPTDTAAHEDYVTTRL
assay: mouse TRPC4 channel activators, dose response, cell-based, HEK293 TRPC4/mu-opioid, Fluo-4 calcium (AID 434937)
Format: functional
Activity calls are given as the source filed them. The rule behind the calls is not given here.
Reported EC50 values for a set of compounds

compound	EC50
CN(C)C(CN=C(S)Nc1ccc(F)cc1)c1cccnc1 (stereo not given)	17.3 nM (active)
CCN=C(S)N1CCC(C(O)(c2ccccc2)c2ccccc2)CC1	10600 nM (active)
CN1CCC(CNC(=O)Nc2ccccc2)(c2ccccc2)CC1	1330 nM (active)
CCc1ccc(C(CNc2nc(C(F)(F)F)nc3ccccc23)N(C)C)cc1 (stereo not given)	2990 nM (active)
Cc1ccc(C2(O)C[N+](c3ccccc3)=C3SCCN32)cc1 (stereo not given)	596 nM (active)
